Entries annotated with measured IC50
Molecular target: Interleukin-1 receptor-associated kinase 4 (Homo sapiens, UniProt Q9NWZ3)
Sequence (Q9NWZ3 whole entry): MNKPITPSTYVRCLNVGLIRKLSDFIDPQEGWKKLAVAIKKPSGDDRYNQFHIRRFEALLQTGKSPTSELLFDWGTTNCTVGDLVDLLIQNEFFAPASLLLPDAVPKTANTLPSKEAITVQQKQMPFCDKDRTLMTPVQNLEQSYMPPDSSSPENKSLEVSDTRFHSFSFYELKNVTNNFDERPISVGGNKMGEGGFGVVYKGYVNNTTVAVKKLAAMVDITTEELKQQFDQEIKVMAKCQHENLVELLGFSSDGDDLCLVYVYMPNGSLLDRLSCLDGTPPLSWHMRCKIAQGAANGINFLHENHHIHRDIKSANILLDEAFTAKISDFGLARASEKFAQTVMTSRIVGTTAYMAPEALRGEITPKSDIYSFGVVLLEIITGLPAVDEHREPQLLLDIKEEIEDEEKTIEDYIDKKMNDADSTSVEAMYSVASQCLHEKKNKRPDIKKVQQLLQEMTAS
Assay: Inhibition of N-terminal GST tagged human recombinant full-length IRAK4 expressed in Sf9 insect cells assessed as reduction in substrate phosphorylation using RP7030 peptide substrate and ATP incubated for 30 mins fluorescence polarization assay
endpoint.label: IC50 (µM)

input_smiles=Nc1nc(N)c(-c2nc3ccccc3s2)c(N[C@@H]2C[C@H](CO)[C@@H](O)[C@H]2O)n1 endpoint_label=IC50 bound_operator== recorded_measurement=5.19
input_smiles=Nc1ncc(-c2nccs2)c(N[C@@H]2C[C@H](CO)[C@@H](O)[C@H]2O)n1 endpoint_label=IC50 bound_operator== recorded_measurement=4.7
input_smiles=Nc1nc(N[C@@H]2C[C@H](CO)[C@@H](O)[C@H]2O)c(-c2nc3ccccc3s2)c(C(F)(F)F)n1 endpoint_label=IC50 bound_operator=> recorded_measurement=20
input_smiles=Nc1ncc(-c2nc3cccnc3s2)c(N[C@@H]2C[C@H](CO)[C@@H](O)[C@H]2O)n1 endpoint_label=IC50 bound_operator== recorded_measurement=0.53

---

Biological target: High affinity nerve growth factor receptor (Homo sapiens) (UniProt P04629)
Sequence (P04629 33-796 limits assumed): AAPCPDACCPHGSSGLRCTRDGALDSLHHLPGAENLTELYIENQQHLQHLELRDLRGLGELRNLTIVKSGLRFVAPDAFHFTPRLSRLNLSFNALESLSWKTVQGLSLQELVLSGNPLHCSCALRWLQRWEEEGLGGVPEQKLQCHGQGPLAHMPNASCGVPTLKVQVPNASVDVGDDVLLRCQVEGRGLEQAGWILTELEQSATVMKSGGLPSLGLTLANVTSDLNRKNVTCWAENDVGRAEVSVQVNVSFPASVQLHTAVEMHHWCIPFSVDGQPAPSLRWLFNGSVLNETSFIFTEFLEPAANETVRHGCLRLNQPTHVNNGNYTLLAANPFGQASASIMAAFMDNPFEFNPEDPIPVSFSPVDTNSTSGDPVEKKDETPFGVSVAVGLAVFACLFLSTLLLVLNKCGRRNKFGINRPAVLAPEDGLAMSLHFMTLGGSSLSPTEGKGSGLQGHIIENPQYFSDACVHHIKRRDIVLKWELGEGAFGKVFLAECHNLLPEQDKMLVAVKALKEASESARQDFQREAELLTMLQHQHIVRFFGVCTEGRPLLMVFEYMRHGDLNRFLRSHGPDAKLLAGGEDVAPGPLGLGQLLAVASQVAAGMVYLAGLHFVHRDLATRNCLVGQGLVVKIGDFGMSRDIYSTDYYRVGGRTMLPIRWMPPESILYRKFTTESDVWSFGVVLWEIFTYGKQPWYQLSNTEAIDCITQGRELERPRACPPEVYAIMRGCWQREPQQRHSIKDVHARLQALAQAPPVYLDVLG
Assay: Inhibition of TRKA (unknown origin)
Calls of active or inactive are those of the source. The calls are words filed in the database; no cut-off is given here.
endpoint.label: inhibition

input_smiles=Nc1nc(N[C@@H]2C[C@H](CO)[C@@H](O)[C@H]2O)c(-c2nc3ccccc3s2)c(C2CC2)n1 recorded_measurement=Active
input_smiles=CCCNc1nc(C)c(-c2nc3ccccc3s2)c(N[C@@H]2C[C@H](CO)[C@@H](O)[C@H]2O)n1 recorded_measurement=Active
input_smiles=CCc1nc(N)nc(N[C@@H]2C[C@H](CO)[C@@H](O)[C@H]2O)c1-c1nc2ccccc2s1 recorded_measurement=Active

---

Target: Mitogen-activated protein kinase kinase kinase kinase 4 (Homo sapiens) (UniProt O95819)
Sequence (O95819 2-1239 limits assumed): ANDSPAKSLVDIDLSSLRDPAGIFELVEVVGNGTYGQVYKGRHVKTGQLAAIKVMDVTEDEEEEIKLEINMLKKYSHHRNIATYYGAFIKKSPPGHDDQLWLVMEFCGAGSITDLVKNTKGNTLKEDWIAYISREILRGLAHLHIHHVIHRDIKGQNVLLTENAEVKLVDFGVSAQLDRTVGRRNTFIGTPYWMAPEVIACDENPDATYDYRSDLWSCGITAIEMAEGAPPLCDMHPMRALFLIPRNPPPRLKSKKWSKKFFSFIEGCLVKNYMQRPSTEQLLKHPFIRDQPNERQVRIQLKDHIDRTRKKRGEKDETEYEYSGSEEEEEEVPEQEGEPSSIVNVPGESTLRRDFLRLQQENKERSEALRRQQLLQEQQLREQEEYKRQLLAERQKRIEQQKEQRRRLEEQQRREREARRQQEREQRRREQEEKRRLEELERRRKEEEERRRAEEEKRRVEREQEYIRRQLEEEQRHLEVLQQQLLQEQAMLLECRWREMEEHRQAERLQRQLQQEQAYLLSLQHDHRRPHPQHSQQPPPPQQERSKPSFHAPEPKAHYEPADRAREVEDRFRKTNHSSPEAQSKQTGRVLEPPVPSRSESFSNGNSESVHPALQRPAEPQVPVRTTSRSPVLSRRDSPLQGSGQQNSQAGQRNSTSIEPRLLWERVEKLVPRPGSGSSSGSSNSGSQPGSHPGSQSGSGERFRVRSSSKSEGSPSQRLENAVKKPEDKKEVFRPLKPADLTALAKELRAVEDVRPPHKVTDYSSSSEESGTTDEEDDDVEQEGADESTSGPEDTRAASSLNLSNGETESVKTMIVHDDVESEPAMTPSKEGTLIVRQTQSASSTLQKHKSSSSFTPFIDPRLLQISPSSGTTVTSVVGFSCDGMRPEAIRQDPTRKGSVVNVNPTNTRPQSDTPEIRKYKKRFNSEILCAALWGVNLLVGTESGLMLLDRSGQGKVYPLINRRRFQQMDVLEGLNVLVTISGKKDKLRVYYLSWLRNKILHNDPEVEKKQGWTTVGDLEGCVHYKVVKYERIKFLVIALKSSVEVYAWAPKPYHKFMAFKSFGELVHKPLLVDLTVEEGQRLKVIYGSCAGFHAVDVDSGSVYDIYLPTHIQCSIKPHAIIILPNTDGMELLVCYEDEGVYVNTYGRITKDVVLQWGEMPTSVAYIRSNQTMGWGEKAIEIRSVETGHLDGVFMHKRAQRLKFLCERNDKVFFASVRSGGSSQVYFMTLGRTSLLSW
Assay: Inhibition of MAP4K4 (unknown origin)
Calls of active or inactive are those of the source. The calls are words filed in the database; no cut-off is given here.
endpoint.label: inhibition

input_smiles=Nc1ncc(-c2nc3ccccc3o2)c(N[C@@H]2C[C@H](CO)[C@@H](O)[C@H]2O)n1 recorded_measurement=Active
input_smiles=Nc1ncc(-c2nc(-c3ccccc3)cs2)c(N[C@@H]2C[C@H](CO)[C@@H](O)[C@H]2O)n1 recorded_measurement=Active
input_smiles=CCc1nc(N)nc(N[C@@H]2C[C@H](CO)[C@@H](O)[C@H]2O)c1-c1nc2ccccc2s1 recorded_measurement=Active
input_smiles=Nc1nc(N[C@@H]2C[C@H](CO)[C@@H](O)[C@H]2O)c(-c2nc3ccccc3s2)c(C2CC2)n1 recorded_measurement=Active

---

Target: Dual specificity protein kinase CLK4 (Homo sapiens)
Assay: Inhibition of CLK4 (unknown origin)
Activity calls are given as the source filed them. The rule behind the calls is not given here.
endpoint.label: inhibition

input_smiles=Nc1ncc(-c2ccccn2)c(N[C@@H]2C[C@H](CO)[C@@H](O)[C@H]2O)n1 endpoint_label=inhibition recorded_measurement=Active
input_smiles=COc1nc(N)nc(N[C@@H]2C[C@H](CO)[C@@H](O)[C@H]2O)c1-c1nc2ccccc2s1 endpoint_label=inhibition recorded_measurement=Active
input_smiles=CCCNc1nc(C)c(-c2nc3ccccc3s2)c(N2CCOCC2)n1 endpoint_label=inhibition recorded_measurement=Active
input_smiles=Nc1ncc(-c2nccs2)c(N[C@@H]2C[C@H](CO)[C@@H](O)[C@H]2O)n1 endpoint_label=inhibition recorded_measurement=Active
input_smiles=Cc1cc(Nc2ncc(-c3nc4ccccc4s3)c(N[C@@H]3C[C@H](CO)[C@@H](O)[C@H]3O)n2)cc(C)n1 endpoint_label=inhibition recorded_measurement=Active
input_smiles=Nc1ncc(-c2ccccc2)c(N[C@@H]2C[C@H](CO)[C@@H](O)[C@H]2O)n1 endpoint_label=inhibition recorded_measurement=Active
input_smiles=COCCCNc1ncc(-c2nc3ccccc3s2)c(N[C@@H]2C[C@H](CO)[C@@H](O)[C@H]2O)n1 endpoint_label=inhibition recorded_measurement=Active
input_smiles=Nc1ncc(-c2cnc3ccccn23)c(N[C@@H]2C[C@H](CO)[C@@H](O)[C@H]2O)n1 endpoint_label=inhibition recorded_measurement=Active
input_smiles=Nc1ncc(-c2nc3cnccc3s2)c(N[C@@H]2C[C@H](CO)[C@@H](O)[C@H]2O)n1 endpoint_label=inhibition recorded_measurement=Active

Reference for the values: ChEMBL document CHEMBL3400143
